The measurements presented in this section are drawn from paper PMC9764287.

- System Under Test: UniProtKB Q0B4G1
- Sequence (Q0B4G1 1-87): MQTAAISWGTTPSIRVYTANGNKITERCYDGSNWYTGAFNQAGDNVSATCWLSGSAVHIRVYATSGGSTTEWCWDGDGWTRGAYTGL
- Run Description: Isothermal titration calorimetry (ITC)
- Assay type: binding
- Stated Conditions: 25 °C, 20 mM Tris, 100 mM NaCl, pH 8.0
- Description: Due to the time-consuming measurements and the high quantity of protein necessary in some techniques, we selected only the four inhibitors with the largest size (compounds with PEGn=4 and hPG-20) for further biophysical analysis. […] This calls for a likely mixed chelate-aggregative binding, whose precise architecture cannot be determined based solely on the compound/protein ratio. […]
Readout Kind: Kd (nM)
Field format: number, assumed nM, no unit text.

Query block: // Kd lookup, key: `C[C@@H]1O[C@@H](OCCN=[N+]=[N-])[C@@H](O)[C@H](O)[C@@H]1O`
Result block: 2140

* * *

- System Under Test: FleA (Aspergillus fumigatus)
- Construct: 6xHis (TEV-cleavable) (N, cleaved yes); made in house
- Run Description: Isothermal titration calorimetry (ITC)
- Assay type: binding
- Stated Conditions: 25 °C, 20 mM Tris, 100 mM NaCl, pH 8.0
Readout Kind: Kd (nM)
API: value field is a number in nM; no unit string.

Query block: Request the reported Kd associated with `C[C@@H]1O[C@@H](OCCN=[N+]=[N-])[C@@H](O)[C@H](O)[C@@H]1O`
Result block: 97600

* * *

- System Under Test: FleA (Aspergillus fumigatus, UniProt Q4WW81)
- Construct: 6xHis (TEV-cleavable) (N, cleaved yes); made in house
- Sequence (Q4WW81 whole entry): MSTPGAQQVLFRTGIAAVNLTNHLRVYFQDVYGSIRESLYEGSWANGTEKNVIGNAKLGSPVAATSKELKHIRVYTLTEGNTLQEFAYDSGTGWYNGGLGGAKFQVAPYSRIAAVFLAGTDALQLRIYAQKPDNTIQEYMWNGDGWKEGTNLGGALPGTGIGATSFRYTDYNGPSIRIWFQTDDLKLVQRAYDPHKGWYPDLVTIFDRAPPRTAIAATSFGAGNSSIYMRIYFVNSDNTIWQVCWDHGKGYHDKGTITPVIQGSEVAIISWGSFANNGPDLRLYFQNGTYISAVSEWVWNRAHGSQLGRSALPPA
- Run Description: Competitive fluorescence polarization (FP) assay
- Format: binding
- Stated Conditions: Fuc-FITC probe 6 nM, protein 100 nM, average over two independent experiments, read-out: IC50 (nM) ± SD FleA
- Description: With the targeted lectins in hand, we could screen the inhibitory properties of the synthesized compounds by a competitive binding assay based on fluorescence polarization (FP). […] In general, results confirmed the power of multivalency as IC50 values improved from the micromolar range for the monosaccharide reference to the nanomolar range for the multivalent counterparts (Table 1). 1.1 F l uoresc en c e pol ari z ati on c om peti ti ve assay […]
Readout Kind: IC50 (nM)
Answer format: numeric, nM implied, no suffix.

Query block: Find the recorded IC50 belonging to CO[C@@H]1O[C@@H](C)[C@@H](O)[C@@H](O)[C@@H]1O [α-Me-Fuc, α-methyl fucose, reference compound] and report it.
Result block: 111000
